Origin of measurements: IntAct's records for PubMed 19731236

B1: Phospholipid-transporting ATPase IC (Homo sapiens), O43520 (parent)
chain: MSTERDSETTFDEDSQPNDEVVPYSDDETEDELDDQGSAVEPEQNRVNREAEENREPFRKECTWQVKANDRKYHEQPHFMNTKFLCIKESKYANNAIKTYKYNAFTFIPMNLFEQFKRAANLYFLALLILQAVPQISTLAWYTTLVPLLVVLGVTAIKDLVDDVARHKMDKEINNRTCEVIKDGRFKVAKWKEIQVGDVIRLKKNDFVPADILLLSSSEPNSLCYVETAELDGETNLKFKMSLEITDQYLQREDTLATFDGFIECEEPNNRLDKFTGTLFWRNTSFPLDADKILLRGCVIRNTDFCHGLVIFAGADTKIMKNSGKTRFKRTKIDYLMNYMVYTIFVVLILLSAGLAIGHAYWEAQVGNSSWYLYDGEDDTPSYRGFLIFWGYIIVLNTMVPISLYVSVEVIRLGQSHFINWDLQMYYAEKDTPAKARTTTLNEQLGQIHYIFSDKTGTLTQNIMTFKKCCINGQIYGDHRDASQHNHNKIEQVDFSWNTYADGKLAFYDHYLIEQIQSGKEPEVRQFFFLLAVCHTVMVDRTDGQLNYQAASPDEGALVNAARNFGFAFLARTQNTITISELGTERTYNVLAILDFNSDRKRMSIIVRTPEGNIKLYCKGADTVIYERLHRMNPTKQETQDALDIFANETLRTLCLCYKEIEEKEFTEWNKKFMAASVASTNRDEALDKVYEEIEKDLILLGATAIEDKLQDGVPETISKLAKADIKIWVLTGDKKETAENIGFACELLTEDTTICYGEDINSLLHARMENQRNRGGVYAKFAPPVQESFFPPGGNRALIITGSWLNEILLEKKTKRNKILKLKFPRTEEERRMRTQSKRRLEAKKEQRQKNFVDLACECSAVICCRVTPKQKAMVVDLVKRYKKAITLAIGDGANDVNMIKTAHIGVGISGQEGMQAVMSSDYSFAQFRYLQRLLLVHGRWSYIRMCKFLRYFFYKNFAFTLVHFWYSFFNGYSAQTAYEDWFITLYNVLYTSLPVLLMGLLDQDVSDKLSLRFPGLYIVGQRDLLFNYKRFFVSLLHGVLTSMILFFIPLGAYLQTVGQDGEAPSDYQSFAVTIASALVITVNFQIGLDTSYWTFVNAFSIFGSIALYFGIMFDFHSAGIHVLFPSAFQFTGTASNALRQPYIWLTIILAVAVCLLPVVAIRFLSMTIWPSESDKIQKHRKRLKAEEQWQRRQQVFRRGVSTRRSAYAFSHQRGYADLISSGRSIRKKRSPLDAIVADGTAEYRRTGDS
partner: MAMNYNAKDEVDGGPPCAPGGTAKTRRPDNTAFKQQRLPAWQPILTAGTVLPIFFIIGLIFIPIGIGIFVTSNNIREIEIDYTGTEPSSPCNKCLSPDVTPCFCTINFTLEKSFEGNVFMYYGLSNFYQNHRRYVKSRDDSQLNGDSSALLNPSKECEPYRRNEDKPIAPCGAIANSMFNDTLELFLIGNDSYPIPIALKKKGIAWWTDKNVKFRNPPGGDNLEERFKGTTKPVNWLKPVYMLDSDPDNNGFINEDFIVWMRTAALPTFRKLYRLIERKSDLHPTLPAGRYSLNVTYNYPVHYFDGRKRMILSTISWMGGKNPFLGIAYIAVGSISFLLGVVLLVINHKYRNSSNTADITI

variants of: B1; details: with cc50a_human TMEM30A
property-label: effect of a mutation on the interaction

mutation_id=D454A reported_result="disrupting interaction"
mutation_id=G308V reported_result="disrupting interaction"
mutation_id=G1040R reported_result="decreasing interaction"
mutation_id=R867C reported_result="decreasing interaction"
mutation_id=D70N reported_result="decreasing interaction"
mutation_id=I661T reported_result="decreasing interaction"
mutation_id=D554N reported_result="disrupting interaction"
